Values from patent US12378224B2

Field: IC50. Provide a value for each of the compounds that follow.

Entry Nc1ncc(-c2ccc(C(=O)NCCCN3CCCC3=O)cc2)cc1C(=O)N[C@@H]1CCN(C(=O)c2ccc(-c3ccccc3Cl)cc2)C1 under human c-MER catalytic domain (Homo sapiens (Human)) had IC50 of 10 to 100 nM

Recorded IC50 for Cn1cc(-c2cnc(N)c(C(=O)N[C@@H]3CCN(C(=O)c4ccc(-c5ccc(C(C)(C)N)cc5)cc4)C3)c2)cn1 on human c-MER catalytic domain (Homo sapiens (Human)) was 100 to 1000 nM

Noted IC50 for Cn1cc(-c2cnc(N)c(C(=O)N[C@@H]3CCN(C(=O)c4nc5cc(Cl)ccc5o4)C3)c2)cn1 , tested on human c-MER catalytic domain (Homo sapiens (Human)): > 1000 nM

The compound CN1CCN(Cc2ccc(-c3cnc(N)c(C(=O)N[C@@H]4CCN(C(=O)Oc5ccccc5)C4)c3)cc2)CC1 on human c-MER catalytic domain (Homo sapiens (Human)): IC50 was 100 to 1000 nM

====

# target of assay: human MER (528-end) (Homo sapiens (Human), UniProt Q12866)
# Sequence (Q12866 528-999 limits assumed): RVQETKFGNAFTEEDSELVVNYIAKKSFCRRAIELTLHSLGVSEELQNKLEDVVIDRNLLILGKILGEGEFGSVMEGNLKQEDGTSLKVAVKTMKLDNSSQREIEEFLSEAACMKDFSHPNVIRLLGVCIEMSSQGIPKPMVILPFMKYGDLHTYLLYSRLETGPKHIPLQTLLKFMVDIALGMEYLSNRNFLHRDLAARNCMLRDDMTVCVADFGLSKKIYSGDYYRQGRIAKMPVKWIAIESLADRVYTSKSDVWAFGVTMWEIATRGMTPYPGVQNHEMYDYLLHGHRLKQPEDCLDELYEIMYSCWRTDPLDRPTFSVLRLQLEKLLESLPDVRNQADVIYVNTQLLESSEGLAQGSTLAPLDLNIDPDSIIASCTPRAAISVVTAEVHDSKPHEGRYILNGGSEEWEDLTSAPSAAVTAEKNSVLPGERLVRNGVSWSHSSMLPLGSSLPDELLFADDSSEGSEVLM
Exercise: state measured IC50 for each of the molecules provided.

Lab entry: human MER (528-end) (Homo sapiens (Human), UniProt Q12866) assay, molecule Cn1cc(-c2cnc(N)c(C(=O)N[C@@H]3CCN(C(=O)Oc4ccc(S(C)(=O)=O)cc4)C3)c2)cn1 , IC50 = > 1 µM

The molecule Cn1cc(-c2cnc(N)c(C(=O)N[C@@H]3CCN(C(=O)c4ccc(-c5ccc(CN6CCC(N)CC6)cc5)cc4)C3)c2)cn1 , when measured on human MER (528-end) (Homo sapiens (Human), UniProt Q12866), yielded IC50 of 0.1 to 1 µM

Tested on human MER (528-end) (Homo sapiens (Human), UniProt Q12866): Cn1cc(-c2cnc(N)c(C(=O)N[C@@H]3CCN(C(=O)Oc4cccc(-c5ccc(CN6CCC[C@@H]6CO)cc5)c4)C3)c2)cn1 . Observed IC50: 0.1 to 1 µM

====

Would you kindly list pIC50 for each of these molecules?
# target of assay: human MER (528-end) (Homo sapiens (Human))
pIC50: −log10 of the molar value.

// pIC50 lookup, molecule = CN(C)C1CCN(Cc2ccc(-c3cccc(OC(=O)N4CC[C@@H](NC(=O)c5cc(-c6cnn(C)c6)cnc5N)C4)c3)cc2)C1 (stereo partly shown) , result: 6.00 to 7.00

The value of pIC50 measured for the molecule CN1CCN(c2cc(-c3cccc(OC(=O)N4CC[C@@H](NC(=O)c5cc(-c6cnn(C)c6)cnc5N)C4)c3)ccn2)CC1 turned out to be < 6.00

Given item CCN1CCC[C@@H]1CNCc1ccc(-c2cccc(OC(=O)N3CC[C@@H](NC(=O)c4cc(-c5cnn(C)c5)cnc4N)C3)c2)cc1 , the value recorded as its pIC50 is 6.00 to 7.00

Record Cn1cc(-c2cnc(N)c(C(=O)N[C@@H]3CCN(C(=O)c4ccc(-c5ccc(Oc6ccc(O)cc6)c(Cl)c5)cc4)C3)c2)cn1 , field pIC50: 7.00 to 8.00

// recorded pIC50 for CN1CC[C@@H]2CN(Cc3ccc(-c4cccc(OC(=O)N5CC[C@@H](NC(=O)c6cc(-c7cnn(C)c7)cnc6N)C5)c4)cc3)C[C@@H]21 : 6.00 to 7.00

The recorded pIC50 for Cn1cc(-c2cnc(N)c(C(=O)N[C@@H]3CCN(C(=O)N[C@H]4CCC[C@@H]4OCc4ccccc4)C3)c2)cn1 is < 6.00

Value of pIC50 reported for the molecule Cn1cc(-c2cnc(N)c(C(=O)N[C@@H]3CCN(C(=S)Nc4ccc(F)cc4)C3)c2)cn1 is < 6.00

Kindly note the recorded pIC50 for Cc1cccc(-c2ccc(C(=O)N3CC[C@@H](NC(=O)c4cc(-c5cnn(C)c5)cnc4N)C3)cc2)c1 , which is 7.00 to 8.00

Item: CC(NCc1ccc(-c2cccc3c(C(=O)N4CC[C@@H](NC(=O)c5cc(-c6cnn(C)c6)cnc5N)C4)cccc23)cc1)C1CCN(C)CC1 (stereo partly shown) | pIC50: < 6.00

Input Cn1cc(-c2cnc(N)c(C(=O)N[C@@H]3CCN(C(=O)NC4CCC(OCc5ccccc5)C4)C3)c2)cn1 (stereo partly shown) . Output pIC50: < 6.00

Data point: Cn1cc(-c2cnc(N)c(C(=O)N[C@@H]3CCN(C(=O)Oc4cccc(-c5cnn(CCN6CCOCC6)c5)c4)C3)c2)cn1 ; pIC50 = < 6.00

pIC50 in this record for Nc1ncc(-c2ccc(C(=O)N3CCOCC3)cc2)cc1C(=O)N[C@@H]1CCN(C(=O)c2ccc(-c3ccccc3Cl)cc2)C1 : 7.00 to 8.00

// recorded pIC50 for Cn1cc(-c2cnc(N)c(C(=O)N[C@@H]3CCN(C(=O)Oc4cccc(-c5ccc(C(=O)O)cc5)c4)C3)c2)cn1 : < 6.00

====

Exercise: state measured pIC50 for each of the compounds provided.
# target of assay: human c-MER catalytic domain (Homo sapiens (Human), UniProt Q12866)
# Sequence (Q12866 587-858): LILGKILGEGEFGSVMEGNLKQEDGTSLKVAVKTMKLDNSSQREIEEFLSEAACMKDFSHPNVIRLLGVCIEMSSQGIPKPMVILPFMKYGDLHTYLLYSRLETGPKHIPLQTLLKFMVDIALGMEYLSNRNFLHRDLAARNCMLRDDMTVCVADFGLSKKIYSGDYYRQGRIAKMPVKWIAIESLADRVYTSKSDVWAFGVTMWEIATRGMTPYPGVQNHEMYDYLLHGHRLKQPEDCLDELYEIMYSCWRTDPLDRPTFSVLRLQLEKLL
pIC50: −log10 of the molar value.

Notebook: CN1CCN(Cc2cccc(N3CC[C@H](OC(=O)N4CC[C@@H](NC(=O)c5cc(-c6cnn(C)c6)cnc5N)C4)C3)c2)CC1 [Example 626] , pIC50 read as < 6.00

// sample Cn1cc(-c2cnc(N)c(C(=O)N[C@H]3CCN(C(=O)c4ccc(-c5ccccc5)cc4)C3)c2)cn1 [Example 346] , its pIC50 was < 6.00

Looking up Cn1cc(-c2cnc(N)c(C(=O)N[C@H]3CCCN(C(=O)c4ccc(-c5ccccc5)cc4)C3)c2)cn1 [Example 348] , I found its pIC50 recorded as < 6.00

// Cn1cc(-c2cnc(N)c(C(=O)N[C@@H]3CCN(C(=O)Oc4cccc(-c5cccc(CN6CC[C@@H](N)C6)c5)c4)C3)c2)cn1 [Example 336] : pIC50 value = 6.00 to 7.00

====

# target of assay: human MER (528-end) (Homo sapiens (Human))
pIC50: −log10 of the molar value.
Task for the reader: assign each of the following molecules its reported pIC50.

Input Cn1cc(-c2cnc(N)c(C(=O)N[C@@H]3CCN(C(=O)Nc4cccc(F)c4)C3)c2)cn1 . Output pIC50: < 6.00

The molecule identified as Cn1cc(-c2cnc(N)c(C(=O)N[C@@H]3CCN(C(=O)Nc4ccccc4Cl)C3)c2)cn1 registered its pIC50 at < 6.00

# pIC50 of CN1CCN(CCc2ccc(-c3cccc(C(=O)N4CC[C@@H](NC(=O)c5cc(-c6cnn(C)c6)cnc5N)C4)c3)cc2)CC1 = < 6.00

Input Cn1cc(-c2cnc(N)c(C(=O)N[C@@H]3CCN(C(=O)c4ccc(-c5ccccc5Cl)cc4)C3)c2)cn1 . Output pIC50: 7.00 to 8.00

Consider Cc1ccc(OC(=O)N2CC[C@@H](NC(=O)c3cc(-c4cnn(C)c4)cnc3N)C2)cc1C . Its measured pIC50 is < 6.00

Reported pIC50 of Cn1cc(-c2cnc(N)c(C(=O)N[C@@H]3CCN(C(=O)c4ccc(-c5cccc(CO)c5)cc4)C3)c2)cn1 : 7.00 to 8.00

// recorded pIC50 for Cn1cc(-c2cnc(N)c(C(=O)N[C@@H]3CCN(C(=O)Oc4cccc(-c5ccc(CN6CCC(C(=O)O)C6)cc5)c4)C3)c2)cn1 (stereo partly shown) : < 6.00

====

Exercise: state measured pIC50 for each of the molecules provided.
pIC50: −log10 of the molar value.

Entry CN(C)Cc1ccc(Oc2ccc(OC(=O)N3CC[C@@H](NC(=O)c4cc(-c5cnn(C)c5)cnc4N)C3)cc2)cc1 under human MER (528-end) (Homo sapiens (Human)) had pIC50 of 6.00 to 7.00

Lab entry: human MER (528-end) (Homo sapiens (Human)) assay, molecule CN1CCC(n2cc(-c3cnc(N)c(C(=O)N[C@@H]4CCN(C(=O)c5ccc(-c6ccccc6)cc5)C4)c3)cn2)CC1 , pIC50 = 7.00 to 8.00

Field pIC50 (system: human MER (528-end) (Homo sapiens (Human))) for entry COc1cccc(CN2CC[C@@H](NC(=O)c3cc(-c4cnn(C)c4)cnc3N)C2)c1 = < 6.00

pIC50 of Cc1ccc(C(=O)N2CC[C@@H](NC(=O)c3cc(-c4cnn(C)c4)cnc3N)C2)cc1-c1cccc(Cl)c1 , assay on human MER (528-end) (Homo sapiens (Human)), is < 6.00

Item CN1C(C)(C)CC(Nc2ccc3cc(C(=O)N4CC[C@@H](NC(=O)c5cc(-c6cnn(C)c6)cnc5N)C4)ccc3c2)CC1(C)C ; assay system human MER (528-end) (Homo sapiens (Human)); pIC50 reported as < 6.00

The reported human MER (528-end) (Homo sapiens (Human)) pIC50 of Nc1ncc(Br)cc1C(=O)N[C@@H]1CCN(C(=O)c2ccc(-c3ccc(F)cc3Cl)cc2)C1 is 6.00 to 7.00

The reported human MER (528-end) (Homo sapiens (Human)) pIC50 of Cn1cc(-c2cnc(N)c(C(=O)N[C@@H]3CCN(C(=O)c4ccc(-c5ccc(Oc6cccnc6)cc5)cc4)C3)c2)cn1 is 6.00 to 7.00

Observed pIC50 on human MER (528-end) (Homo sapiens (Human)), entry CC(/C=C/c1ccc(C(=O)N2CC[C@@H](NC(=O)c3cc(-c4cnn(C)c4)cnc3N)C2)cc1)N1CCN(CCO)CC1 (stereo partly drawn) , equals 7.00 to 8.00

Lab entry: human MER (528-end) (Homo sapiens (Human)) assay, molecule Cc1cc(N)ccc1N(C)c1ccc(-c2ccc(C(=O)N3CC[C@@H](NC(=O)c4cc(-c5cnn(C)c5)cnc4N)C3)cc2)cc1 , pIC50 = 6.00 to 7.00

Item: CN1CCN(CCn2cc(-c3cccc(OC(=O)N4CC[C@@H](NC(=O)c5cc(-c6cnn(C)c6)cnc5N)C4)c3)cn2)CC1 | System: human MER (528-end) (Homo sapiens (Human)) | pIC50: < 6.00

// pIC50 (human MER (528-end) (Homo sapiens (Human))) for COc1cccc(CN2CC[C@@H](NC(=O)c3cc(-c4cnn(C5CCNCC5)c4)cnc3N)C2)c1 = 6.00 to 7.00

The measured pIC50 that Nc1ncc(-c2cncc(C(=O)O)c2)cc1C(=O)N[C@@H]1CCN(C(=O)c2ccc(-c3ccc(F)cc3Cl)cc2)C1 showed for human MER (528-end) (Homo sapiens (Human)) is 6.00 to 7.00

The value of pIC50 recorded for Cn1cc(-c2cnc(N)c(C(=O)N[C@@H]3CCN(C(=O)Oc4cccc(-c5ccc(CN6CCC[C@H]6C(N)=O)cc5)c4)C3)c2)cn1 when tested on human MER (528-end) (Homo sapiens (Human)) reads < 6.00

# Cn1cc(-c2cnc(N)c(C(=O)N[C@@H]3CCN(C(=O)Oc4ccccc4)C3)c2)cn1 with human MER (528-end) (Homo sapiens (Human)): pIC50 is < 6.00

pIC50 value, target or system human MER (528-end) (Homo sapiens (Human)), for Cn1cc(-c2cnc(N)c(C(=O)N[C@@H]3CCN(C(=O)Oc4cccc(-c5ccc(CN6CCCNCC6)cc5)c4)C3)c2)cn1 : 6.00 to 7.00

The molecule Cn1cc(-c2cnc(N)c(C(=O)N[C@@H]3CCN(C(=O)c4ccc(Oc5cccc([N+](=O)[O-])c5)cc4)C3)c2)cn1 , tested on human MER (528-end) (Homo sapiens (Human)), showed pIC50 of < 6.00

Param item: Cn1cc(-c2cnc(N)c(C(=O)N[C@@H]3CCN(C(=O)c4cccc(-c5cccnc5)c4)C3)c2)cn1 ; param system: human MER (528-end) (Homo sapiens (Human)); output pIC50: < 6.00

I looked up CN1CCC(n2cc(-c3cnc(N)c(C(=O)N[C@@H]4CCN(C(=O)Oc5ccccc5)C4)c3)cn2)CC1 and its pIC50 for human MER (528-end) (Homo sapiens (Human)) was < 6.00

Case Cn1cc(-c2cnc(N)c(C(=O)N[C@@H]3CCN(C(=O)/C=C/c4ccc(-c5ccccc5)cc4)C3)c2)cn1 , human MER (528-end) (Homo sapiens (Human)), pIC50 recorded as 6.00 to 7.00

Recorded pIC50 for Cn1cc(-c2cnc(N)c(C(=O)N[C@@H]3CCN(C(=O)c4ccc5cc(C(=O)N6CCN(CCO)CC6)ccc5c4)C3)c2)cn1 on human MER (528-end) (Homo sapiens (Human)) was < 6.00

Tested on human MER (528-end) (Homo sapiens (Human)): CN1CCC(Oc2ccc(-c3ccc(C(=O)N4CC[C@@H](NC(=O)c5cc(-c6cnn(C)c6)cnc5N)C4)cc3)cc2)CC1 . Observed pIC50: 7.00 to 8.00

Record CN(c1ccc(-c2ccc(C(=O)N3CC[C@@H](NC(=O)c4cc(-c5cnn(C)c5)cnc4N)C3)cc2)cc1)c1ccc(N)cc1Cl has human MER (528-end) (Homo sapiens (Human)) pIC50 equal to 6.00 to 7.00

Item: Cn1cc(-c2cnc(N)c(C(=O)N[C@@H]3CCN(C(=O)c4cc5ccccc5s4)C3)c2)cn1 | System: human MER (528-end) (Homo sapiens (Human)) | pIC50: 6.00 to 7.00

Recorded pIC50 for Cn1cc(-c2cnc(N)c(C(=O)N[C@@H]3CCN(c4ccccn4)C3)c2)cn1 on human MER (528-end) (Homo sapiens (Human)) was < 6.00

Field pIC50 (system: human MER (528-end) (Homo sapiens (Human))) for entry Cn1cc(-c2cnc(N)c(C(=O)N[C@@H]3CCN(C(=O)c4ccc(-c5ccc(N6CCOCC6)cc5)cc4)C3)c2)cn1 = < 6.00

human MER (528-end) (Homo sapiens (Human)) pIC50 of Cn1cc(-c2cnc(N)c(C(=O)NC[C@@H]3CCCN3C(=O)c3cccc(-c4ccccc4)c3)c2)cn1 is < 6.00

Cn1cc(-c2cnc(N)c(C(=O)N[C@@H]3CCN(C(=O)c4ccc(-c5cc(F)cc(Cl)c5)cc4)C3)c2)cn1 tested on human MER (528-end) (Homo sapiens (Human)) gave pIC50: 7.00 to 8.00
